Ref: patent EP4470536A1

# subjectOfTest: CYP26B1 (Homo sapiens, UniProt Q9NR63)
# Sequence (Q9NR63 1-512): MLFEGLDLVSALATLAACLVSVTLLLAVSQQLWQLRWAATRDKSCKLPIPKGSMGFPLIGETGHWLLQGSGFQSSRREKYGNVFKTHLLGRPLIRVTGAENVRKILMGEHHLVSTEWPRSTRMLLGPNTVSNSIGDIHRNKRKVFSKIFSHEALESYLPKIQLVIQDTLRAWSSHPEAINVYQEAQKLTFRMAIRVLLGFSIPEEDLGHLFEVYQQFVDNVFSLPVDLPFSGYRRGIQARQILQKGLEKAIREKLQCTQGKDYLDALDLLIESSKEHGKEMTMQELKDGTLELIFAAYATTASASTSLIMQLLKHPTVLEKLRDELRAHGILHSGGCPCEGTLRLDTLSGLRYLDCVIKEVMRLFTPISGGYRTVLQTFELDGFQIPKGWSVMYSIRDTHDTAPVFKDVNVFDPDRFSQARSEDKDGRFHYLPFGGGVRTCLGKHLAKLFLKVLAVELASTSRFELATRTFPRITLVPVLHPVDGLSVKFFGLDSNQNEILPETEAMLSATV
# assayExplanation: HeLa cell-based inhibitor assay (HeLa-CYP26B1), inhibition of all trans-RA metabolism
# conditionParameters: CYP26B1 cells; [3H]-RA, 3 hours at 37 °C; Figure 1
quantityName: IC50
Form field: result (number plus unit)

Supply measured IC50 of CC(C)(C)c1cccc(-c2cc3cc(/C=C/C(=O)O)ccc3[nH]2)c1 [Compound 1] in your reply.
12.7 nM

* * *

# assayExplanation: Mapping a therapeutic window (ED50 versus MTD)
# Assay type: in vivo
# conditionParameters: both sexes, FVB, mouse, in vivo
quantityName: MTD at 4 weeks

Note down MTD at 4 weeks recorded for CC(C)(C)c1cccc(-c2cc3cc(/C=C/C(=O)O)ccc3[nH]2)c1 [Compound 1]
10 mg/kg
